Recorded values, source the supplement of paper PMC10567573.

B1: SPOPL (parent)
chain: PDDKLTLFCEVSVVQDSVNISGHT

variants of: B1; assay: protein stability index of a GFP-peptide fusion (GPS, HEK-293T) (PSI 1-6); higher = more stable; conditions: c terminus: a fixed tail appended;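 also: lentivirally expressed fusions sorted by FACS into six bins by GFP to DsRed ratio, PSI derived from sequencing read proportions per bin multiplied by bin number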
Could you label it true if measured protein stability index is 3 or higher, and false otherwise?

- polymer.sequence: "PDDALTLFCEVSVVQDSVNISGHT [K4A]"
  class: "false"
- polymer.sequence: "PHDKLTLFCEVSVVQDSVNISGHT [D2H]"
  class: "false"
- polymer.sequence: "PDDKLTLFFEVSVVQDSVNISGHT [C9F]"
  class: "false"
- polymer.sequence: "PDDKLTLFCEVSSVQDSVNISGHT [V13S]"
  class: "true"
- polymer.sequence: "PDDKLTLFCEVPVVQDSVNISGHT [S12P]"
  class: "true"
- polymer.sequence: "PDDKLTNFCEVSVVQDSVNISGHT [L7N]"
  class: "true"
- polymer.sequence: "PDDKLTLFCEVSVQQDSVNISGHT [V14Q]"
  class: "false"
- polymer.sequence: "PDDKLTLFCEVSVVQDSLNISGHT [V18L]"
  class: "false"
- polymer.sequence: "PDDKLTLFCEVSVVQDSVNISGHI [T24I]"
  class: "false"
- polymer.sequence: "PDDKLTLFCEVSVVQNSVNISGHT [D16N]"
  class: "false"
- polymer.sequence: "PDDKLTLFCEVDVVQDSVNISGHT [S12D]"
  class: "true"
- polymer.sequence: "PDKKLTLFCEVSVVQDSVNISGHT [D3K]"
  class: "false"
- polymer.sequence: "PDDKLTLFCEVSAVQDSVNISGHT [V13A]"
  class: "true"
- polymer.sequence: "PDDKLTLFCEVSVYQDSVNISGHT [V14Y]"
  class: "false"
- polymer.sequence: "PDDKKTLFCEVSVVQDSVNISGHT [L5K]"
  class: "true"
- polymer.sequence: "PDDKLTLFCEVSVVQDSVNISGHW [T24W]"
  class: "true"
- polymer.sequence: "PDDKLTLFCEVSVVQDSVNITGHT [S21T]"
  class: "true"
- polymer.sequence: "PDDKLTLFCEVSVVQDSVNISDHT [G22D]"
  class: "false"
- polymer.sequence: "PDDKLTLFCELSVVQDSVNISGHT [V11L]"
  class: "false"
- polymer.sequence: "PDDKLTLFCEVSYVQDSVNISGHT [V13Y]"
  class: "false"
- polymer.sequence: "PVDKLTLFCEVSVVQDSVNISGHT [D2V]"
  class: "true"
- polymer.sequence: "PDDFLTLFCEVSVVQDSVNISGHT [K4F]"
  class: "false"
- polymer.sequence: "PDSKLTLFCEVSVVQDSVNISGHT [D3S]"
  class: "false"
- polymer.sequence: "PDDKLTLFCEVSVSQDSVNISGHT [V14S]"
  class: "false"
- polymer.sequence: "PDDKLTLFVEVSVVQDSVNISGHT [C9V]"
  class: "true"
- polymer.sequence: "IDDKLTLFCEVSVVQDSVNISGHT [P1I]"
  class: "true"
- polymer.sequence: "PDDKLTLFCEVSVVQPSVNISGHT [D16P]"
  class: "false"
- polymer.sequence: "PDDKLTMFCEVSVVQDSVNISGHT [L7M]"
  class: "false"
- polymer.sequence: "PDDKLTLFCEVSVVQDSVNIAGHT [S21A]"
  class: "false"
- polymer.sequence: "PDDKLTLFCEVSVVQDSVNISGGT [H23G]"
  class: "false"
- polymer.sequence: "PDDKLTLFCEWSVVQDSVNISGHT [V11W]"
  class: "false"
- polymer.sequence: "PDDKLTLFCEVVVVQDSVNISGHT [S12V]"
  class: "false"
- polymer.sequence: "PDDKPTLFCEVSVVQDSVNISGHT [L5P]"
  class: "true"
- polymer.sequence: "PDDKLTLFCEVSVVQDSVNIEGHT [S21E]"
  class: "false"
- polymer.sequence: "PDDKLTLFCEVSVVQDSVNISSHT [G22S]"
  class: "false"
- polymer.sequence: "PDDKLTLFCEVSVVQDSGNISGHT [V18G]"
  class: "false"
- polymer.sequence: "PDDKLTLFCEVSVAQDSVNISGHT [V14A]"
  class: "false"
- polymer.sequence: "PDDKRTLFCEVSVVQDSVNISGHT [L5R]"
  class: "true"
- polymer.sequence: "PDDKLTLFCEVSVVQDVVNISGHT [S17V]"
  class: "false"
- polymer.sequence: "PDDKLTLFCEVSVVADSVNISGHT [Q15A]"
  class: "false"
- polymer.sequence: "PDDKLTLFCEVSTVQDSVNISGHT [V13T]"
  class: "true"
- polymer.sequence: "PDDKLTSFCEVSVVQDSVNISGHT [L7S]"
  class: "true"
- polymer.sequence: "PDDKLTLFCEVSVVQDSVNIQGHT [S21Q]"
  class: "true"
- polymer.sequence: "PDDKLTLFCKVSVVQDSVNISGHT [E10K]"
  class: "false"
- polymer.sequence: "PDDKLTLFCEVSVVQDLVNISGHT [S17L]"
  class: "true"
